Task for the reader: assign each of the following compounds its reported Delta TC.
Biological target: Sterol O-acyltransferase 1 (Rattus norvegicus)
Assay: Acute in vivo activity was measured by the total plasma cholesterol concentration levels(TC) at dose 3 mg/kg
Assay type: functional, organism-based
Parameters: dose 3 mg/kg
Show the value, then the unit it is measured in.

# annotated cases, reported Delta TC shown
[
  {
    "Line Notation": "CC(C)c1cccc(C(C)C)c1OC(=O)NS(=O)(=O)N(C(C)C)C1CCCCC1",
    "Observed": "-49%"
  },
  {
    "Line Notation": "CC(C)c1ccc(C(C)C)c(NC(=O)NS(=O)(=O)Oc2c(C(C)C)cccc2C(C)C)c1",
    "Observed": "-1%"
  },
  {
    "Line Notation": "COc1cc(C(C)(C)C)c(OC(=O)NS(=O)(=O)Nc2c(C(C)C)cccc2C(C)C)c(C(C)(C)C)c1",
    "Observed": "-29%"
  },
  {
    "Line Notation": "COc1cccc(OC)c1OS(=O)(=O)NC(=O)Oc1c(C(C)C)cccc1C(C)C",
    "Observed": "-63%"
  },
  {
    "Line Notation": "CCCCN(CC)S(=O)(=O)NC(=O)Nc1c(C(C)C)cccc1C(C)C",
    "Observed": "-29%"
  },
  {
    "Line Notation": "CC(C)c1cccc(C(C)C)c1OC(=O)NS(=O)(=O)N(c1ccccc1)c1ccccc1",
    "Observed": "-46%"
  },
  {
    "Line Notation": "CC(C)c1cc(C(C)C)c(OC(=O)NS(=O)(=O)Oc2c(C(C)C)cccc2C(C)C)c(C(C)C)c1",
    "Observed": "-57%"
  },
  {
    "Line Notation": "CCCCCCOS(=O)(=O)NC(=O)Oc1c(C(C)C)cccc1C(C)C",
    "Observed": "-18%"
  }
]

We now examine a further compound.
Input line: Any idea what its Delta TC is? The compound is CCCCCN(CCCCC)S(=O)(=O)NC(=O)Oc1c(C(C)C)cccc1C(C)C
Output line: -66%
